B1: RAD51 (parent)
chain: APKKELINIKGISEAKADKILAEA

Variants of: B1
test_description: protein stability index of a GFP-peptide fusion (GPS, HEK-293T) (PSI 1-6); higher = more stable;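 note: lentivirally expressed fusions sorted by FACS into six bins by GFP to DsRed ratio, PSI derived from sequencing read proportions per bin multiplied by bin number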
test_parameters: c terminus: a fixed tail appended
observation_type: protein stability index

> print(dat)
    mutation   val
 1      S13V  4.02
 2      I20L  4.86
 3       L6V   5.2
 4      L21H  4.95
 5      A24H  4.76
 6      K19C  4.44
 7      A24M  4.34
 8       N8R  4.79
 9       L6H  5.13
10      D18R  4.07
11       E5Q  3.96
12       P2F  3.62
13      I20H  5.11
14       E5C  3.56
15      I12H  5.44
16       I9H  4.66
17      I20N  5.38
18      G11Y  4.18
19       K4Y  4.52
20      D18L   3.9
21       E5W  3.01
22      I12E  4.54
